As shown below, each of these compounds has a reported solubility value.
test: Solubility, determined in phosphate buffer at pH 7; type: physicochemical

{"line.notation": "Cc1ncc2cc(-c3c(Cl)cccc3Cl)c(N)nc2n1", "units": "µg/mL", "solubility": 7}
{"line.notation": "Cc1ncc2cc(-c3c(Cl)cccc3Cl)c(NC(=O)c3cccnc3)nc2n1", "units": "µg/mL", "solubility": 2630}
{"line.notation": "COC(=O)Nc1nc2nc(C)ncc2cc1-c1c(Cl)cccc1Cl", "units": "µg/mL", "solubility": 280}
{"line.notation": "CC(=O)Nc1nc2nc(C)ncc2cc1-c1c(Cl)cccc1Cl", "units": "µg/mL", "solubility": 6050}
{"line.notation": "Cc1ncc2cc(-c3c(Cl)cccc3Cl)c(NC(=O)c3ccco3)nc2n1", "units": "µg/mL", "solubility": 220}

====

assay: Half-life measured in 1:1 ratio of MeOH and phosphate buffer at pH 7; 15-17; type: ADME; conditions: 1:1 MeOH / phosphate buffer

{"line.notation": "Cc1ncc2cc(-c3c(Cl)cccc3Cl)c(NC(=O)c3ccco3)nc2n1", "half-life": "15 days"}

====

tested on: Rattus norvegicus; test: Antihypertensive activity rating in conscious SHR after 10 hr post dose at 50 mg/kg (po); format: functional
As shown below, each of these compounds has a reported Activity rating value.

{"line.notation": "CC(=O)Nc1nc2nc(C)ncc2cc1-c1c(Cl)cccc1Cl", "Activity rating": ">30%"}
{"line.notation": "Cc1ncc2cc(-c3c(Cl)cccc3Cl)c(NC=O)nc2n1", "Activity rating": ">30%"}
{"line.notation": "Cc1ncc2cc(-c3c(Cl)cccc3Cl)c(N)nc2n1", "Activity rating": ">30%"}
{"line.notation": "CCC(=O)Nc1nc2nc(C)ncc2cc1-c1c(Cl)cccc1Cl", "Activity rating": ">30%"}

====

assay: Half-life measured in 0.1 N HCl; Stable; format: ADME; conditions: buffer
measured.property: T1/2

{"line.notation": "CC(=O)N(C)c1nc2nc(C)ncc2cc1-c1c(Cl)cccc1Cl", "measured.property": "T1/2", "observed.measurement": "Stable"}
{"line.notation": "COC(=O)Nc1nc2nc(C)ncc2cc1-c1c(Cl)cccc1Cl", "measured.property": "T1/2", "observed.measurement": "Stable"}
{"line.notation": "Cc1ncc2cc(-c3c(Cl)cccc3Cl)c(NC(=O)c3cccnc3)nc2n1", "measured.property": "T1/2", "observed.measurement": "Stable"}
{"line.notation": "Cc1ncc2cc(-c3c(Cl)cccc3Cl)c(NC(=O)c3ccco3)nc2n1", "measured.property": "T1/2", "observed.measurement": "Stable"}

====

assay: Half-life measured in 0.1 N HCl; format: ADME
As shown below, each of these molecules has a reported half-life value.

{"line.notation": "CC(=O)Nc1nc2nc(C)ncc2cc1-c1c(Cl)cccc1Cl", "half-life (h)": 12.5}
{"line.notation": "CC(=O)/N=c1/c(-c2c(Cl)cccc2Cl)cc2cnc(C)nc2n1C", "half-life (h)": 3.4}

====

test: Solubility, determined in 0.1 N HCl; type: physicochemical; settings: read-out: S
measured.property: solubility (mg/mL)

{"line.notation": "CC(=O)Nc1nc2nc(C)ncc2cc1-c1c(Cl)cccc1Cl", "measured.property": "solubility", "units": "mg/mL", "observed.measurement": 34.2}
{"line.notation": "Cc1ncc2cc(-c3c(Cl)cccc3Cl)c(NC(=O)c3ccco3)nc2n1", "measured.property": "solubility", "units": "mg/mL", "observed.measurement": 6.6}
{"line.notation": "Cc1ncc2cc(-c3c(Cl)cccc3Cl)c(NC(=O)c3cccnc3)nc2n1", "measured.property": "solubility", "units": "mg/mL", "observed.measurement": 26.6}
{"line.notation": "COC(=O)Nc1nc2nc(C)ncc2cc1-c1c(Cl)cccc1Cl", "measured.property": "solubility", "units": "mg/mL", "observed.measurement": 14.6}
{"line.notation": "Cc1ncc2cc(-c3c(Cl)cccc3Cl)c(N)nc2n1", "measured.property": "solubility", "units": "mg/mL", "observed.measurement": 4.85}
